The following molecules are shown together with reported PolyA/LLTR values.
system: HIV transcripts (TAR, LLTR, Pol, PolyA, TatRev); assay: Cell-associated HIV transcripts (RT-ddPCR) 6 days after anti-CD3/CD28 activation of PBMCs from ART-suppressed PWH; assay type: cell-based; details: participant 2161; DMSO+CD3/28 = 1; Fig 4B, C and D
property-label: PolyA/LLTR

>>> obs_value("COc1ccc(-c2cc(=O)c3c(O)cc(O)c(-c4cc(-c5cc(=O)c6c(O)cc(O)cc6o5)ccc4OC)c3o2)cc1")
0.57
>>> obs_value("CCc1cnn2c(NCc3ccc[n+]([O-])c3)cc(N3CCCC[C@H]3CCO)nc12")
1.48
>>> obs_value("CN1CC[C@H](c2c(O)cc(O)c3c(=O)cc(-c4ccccc4Cl)oc23)[C@H](O)C1")
0.55
>>> obs_value("N#CC[C@H](C1CCCC1)n1cc(-c2ncnc3[nH]ccc23)cn1")
0.46
>>> obs_value("O=c1c(O)c(-c2ccc(O)c(O)c2)oc2cc(O)cc(O)c12")
0.79
>>> obs_value("CO[C@H]([C@@H](C)[C@H]1O[C@]1(C)C[C@H](C)/C=C/C=C(\\C)[C@H]1O[C@@H](CC(=O)O)CC[C@@H]1C)[C@@H](C)O")
0.72
>>> obs_value("CC(=O)N[C@@H]1CCC[C@H](C(=O)Nc2cc(-c3cnn4c3CC(C)(C)C4)c(Cl)cn2)C1")
1.39

###

system: PolyA HIV RNA in the supernatant; experiment: Supernatant viral RNA (polyadenylated HIV RNA, RT-ddPCR) at day 6 after T cell activation; format: cell-based; conditions: study participant 163; day 6
property-label: Polyadenylated HIV RNA in supernatant (Fig 5)

>>> obs_value("CCc1cnn2c(NCc3ccc[n+]([O-])c3)cc(N3CCCC[C@H]3CCO)nc12")
"133.94 % of activated DMSO"
>>> obs_value("O=c1c(O)c(-c2ccc(O)c(O)c2)oc2cc(O)cc(O)c12")
"85.4 % of activated DMSO"
>>> obs_value("CNc1ccc([N+](=O)[O-])c(Nc2ccc3[nH]ncc3c2)n1")
"90.15 % of activated DMSO"
>>> obs_value("CC(=O)N[C@@H]1CCC[C@H](C(=O)Nc2cc(-c3cnn4c3CC(C)(C)C4)c(Cl)cn2)C1")
"90.51 % of activated DMSO"
>>> obs_value("N#CC[C@H](C1CCCC1)n1cc(-c2ncnc3[nH]ccc23)cn1")
"0.53 % of activated DMSO"

###

The reader will find reported PolyA/LLTR values listed item by item below.
Test system: HIV transcripts (TAR, LLTR, Pol, PolyA, TatRev)
Test: Cell-associated HIV transcripts (RT-ddPCR) 6 days after anti-CD3/CD28 activation of PBMCs from ART-suppressed PWH
Assay type: cell-based
Settings: participant 2147a; DMSO+CD3/28 = 1; Fig 4B, C and D
Method: Next, we evaluated the ability of the candidate LPAs to sustain the inhibitory effects during a prolonged ex vivo culture. […] Each drug was tested in PBMCs from at least 6 ART-suppressed study participants (except for KRIBB11, n = 5). […] (A) The levels of all HIV transcripts were normalized to 1 μg of total cellular RNA and expressed as a percentage of the activated DMSO control (% of activated DMSO). […] P values were calculated using Wilcoxon’s signed-rank test: *P < 0.05. […]
property-label: PolyA/LLTR

>>> obs_value("O=c1c(O)c(-c2ccc(O)c(O)c2)oc2cc(O)cc(O)c12")
0.5196
>>> obs_value("CC(=O)N[C@@H]1CCC[C@H](C(=O)Nc2cc(-c3cnn4c3CC(C)(C)C4)c(Cl)cn2)C1")
0.4073
>>> obs_value("COc1ccc(-c2cc(=O)c3c(O)cc(O)c(-c4cc(-c5cc(=O)c6c(O)cc(O)cc6o5)ccc4OC)c3o2)cc1")
1.437

###

tested on: PBMCs; assay: Cell viability by trypan blue staining after 24 hours; type: cell-based, human; details: study participant 150a
Each entry below carries its recorded Viability (Fig 1A).
property-label: Viability (Fig 1A)

>>> obs_value("C[C@H]1O[C@@H](O[C@H]2[C@@H](O)C[C@H](O[C@H]3[C@@H](O)C[C@H](O[C@H]4CC[C@@]5(C)[C@H](CC[C@@H]6[C@@H]5C[C@@H](O)[C@]5(C)[C@@H](C7=CC(=O)OC7)CC[C@]65O)C4)O[C@@H]3C)O[C@@H]2C)C[C@H](O)[C@@H]1O")
"98.44 % of activated DMSO"
>>> obs_value("CN1CCN(c2nc(C3=C(c4c[nH]c5ccccc45)C(=O)NC3=O)c3ccccc3n2)CC1")
"103.88 % of activated DMSO"
>>> obs_value("Nc1nc2nn[nH]c2c(=O)[nH]1")
"106.88 % of activated DMSO"

###

Listed here: items and their measured Viability (Fig 1A).
tested on: PBMCs; assay: Cell viability by trypan blue staining after 24 hours; assay type: cell-based, human; conditions: study participant 150a
property-label: Viability (Fig 1A)

>>> obs_value("N#CC[C@H](C1CCCC1)n1cc(-c2ncnc3[nH]ccc23)cn1 [ruxolitinib]")
"95.89 % of activated DMSO"
>>> obs_value("CC(=O)S[C@@H]1CC2=CC(=O)CC[C@]2(C)[C@H]2CC[C@@]3(C)[C@@H](CC[C@@]34CCC(=O)O4)[C@H]12 [spironolactone]")
"102.53 % of activated DMSO"
>>> obs_value("Oc1ccc(/C=C/c2cc(O)cc(O)c2)cc1 [resveratrol]")
"102.48 % of activated DMSO"
>>> obs_value("Cn1cc(C2=C(c3cn(C4CCN(Cc5ccccn5)CC4)c4ccccc34)C(=O)NC2=O)c2ccccc21 [enzastaurin]")
"100.98 % of activated DMSO"
>>> obs_value("CCCCCCCCCCCCCCC=C(C(=O)OCC)C(=O)OCC [SPV-106]")
"103.1 % of activated DMSO"
>>> obs_value("CN[C@@H]1C[C@H]2O[C@@](C)([C@@H]1OC)n1c3ccccc3c3c4c(c5c6ccccc6n2c5c31)C(=O)NC4 [staurosporine]")
"109.29 % of activated DMSO"
>>> obs_value("COc1ccc(-c2cc(=O)c3c(O)cc(O)c(-c4cc(-c5cc(=O)c6c(O)cc(O)cc6o5)ccc4OC)c3o2)cc1 [isoginkgetin]")
"88.97 % of activated DMSO"
>>> obs_value("CN1CC[C@H](c2c(O)cc(O)c3c(=O)cc(-c4ccccc4Cl)oc23)[C@H](O)C1 [alvocidib]")
"98.54 % of activated DMSO"
